Data origin, for the record: patent US9447048B2

System: Sweetpotato Whitefly Crawler (Bemisia tabaci) (BEMITA)
Method summary: Bioassay on Sweetpotato Whitefly Crawler, foliar spray on cotton plants
Assay type: in vivo
Condition info: 200 ppm spray on cotton leaf, graded after 8-9 days, live nymphs, Abbott's correction
Observation type: BEMITA rating (% Control of Mortality)

IN: Fill blank: measured BEMITA rating (% Control of Mortality) of the compound `CCN(C(=O)CCSCCC(F)(F)F)c1cn(-c2cccnc2)nc1Cl` is ____.
OUT: A (80-100)

IN: Try the compound CCN(C(=O)CC[S+]([O-])CCC(F)(F)F)c1cn(-c2cccnc2)nc1Cl (centres unmarked)
OUT: A (80-100)

====

System: Green Peach Aphid (Myzus persicae) (MYZUPE)
Method summary: Bioassay on Green Peach Aphid (GPA), foliar spray on cabbage seedlings
Format: in vivo
Condition info: 200 ppm spray on cabbage leaves, graded after three days, live aphids, Abbott's correction
Observation type: MYZUPE rating (% Control of Mortality)

IN: Entry CCN(C(=O)CC[S+]([O-])CCC(F)(F)F)c1cn(-c2cccnc2)nc1Cl (centres unmarked) : reported MYZUPE rating (% Control of Mortality) = ?
OUT: A (80-100)

IN: Cool, now `CCN(C(=O)CCSCCC(F)(F)F)c1cn(-c2cccnc2)nc1Cl`
OUT: A (80-100)

IN: Okay, and `O=C(CCSCCC(F)(F)F)Nc1cn(-c2cccnc2)nc1Cl` ?
OUT: A (80-100)
